- TARGET DESC: Proton Pump (H^+,K^+-ATPase) (Sus scrofa)
- Construct: gastric vesicles were isolated from porcine stomachs; from tissue; host or cells: porcine stomach (gastric vesicles)
- PROCEDURE SUMMARY: Inhibitory activity on proton pump (H+,K+-ATPase) activity, porcine gastric vesicles, malachite green readout
- Format: biochemical
- MEASUREMENT SETUP: result in words
MEASURED ATTRIBUTE: inhibitory activity against proton pump activity

compound="COC(=O)c1cc(NCc2c(C)cccc2C)c2nc(C)c(C)n2c1 [Comparative Example 2, reference compound]" result="weak inhibitory activity"
compound="Cc1cccc(C)c1CNc1cc(Br)cn2c(C)c(C)nc12 [Comparative Example 1, reference compound]" result="weak inhibitory activity"

###

- TARGET DESC: Proton Pump (H^+,K^+-ATPase) (Sus scrofa, UniProt P19156)
- Construct: gastric vesicles were isolated from porcine stomachs
- Sequence (P19156 2-1034 limits assumed): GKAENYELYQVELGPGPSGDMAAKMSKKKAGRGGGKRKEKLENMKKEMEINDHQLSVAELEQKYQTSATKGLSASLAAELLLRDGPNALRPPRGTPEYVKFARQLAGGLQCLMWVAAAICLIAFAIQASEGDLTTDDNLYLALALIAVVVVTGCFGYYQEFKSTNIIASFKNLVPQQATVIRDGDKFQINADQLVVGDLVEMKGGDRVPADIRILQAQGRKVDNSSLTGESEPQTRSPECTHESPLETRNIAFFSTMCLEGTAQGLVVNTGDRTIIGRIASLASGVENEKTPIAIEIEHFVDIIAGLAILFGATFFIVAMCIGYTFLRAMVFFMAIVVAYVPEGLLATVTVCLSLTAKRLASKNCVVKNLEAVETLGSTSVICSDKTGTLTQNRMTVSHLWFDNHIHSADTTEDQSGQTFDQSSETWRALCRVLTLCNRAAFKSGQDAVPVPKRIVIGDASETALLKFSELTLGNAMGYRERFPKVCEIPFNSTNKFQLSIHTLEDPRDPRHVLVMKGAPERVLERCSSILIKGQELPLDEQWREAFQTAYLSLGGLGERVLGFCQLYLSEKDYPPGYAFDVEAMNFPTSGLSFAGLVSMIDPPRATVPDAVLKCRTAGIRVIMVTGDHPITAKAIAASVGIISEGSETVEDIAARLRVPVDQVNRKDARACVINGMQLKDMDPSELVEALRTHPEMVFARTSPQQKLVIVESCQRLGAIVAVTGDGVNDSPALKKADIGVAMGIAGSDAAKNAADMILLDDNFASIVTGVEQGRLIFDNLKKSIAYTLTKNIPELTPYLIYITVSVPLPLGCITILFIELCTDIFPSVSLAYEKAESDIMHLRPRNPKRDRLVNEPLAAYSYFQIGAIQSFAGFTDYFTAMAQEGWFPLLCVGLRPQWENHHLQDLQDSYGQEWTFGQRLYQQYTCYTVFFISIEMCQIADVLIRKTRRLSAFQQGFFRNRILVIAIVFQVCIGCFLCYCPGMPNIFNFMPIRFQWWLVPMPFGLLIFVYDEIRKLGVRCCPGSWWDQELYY
- Sequence (P18434 whole entry partner): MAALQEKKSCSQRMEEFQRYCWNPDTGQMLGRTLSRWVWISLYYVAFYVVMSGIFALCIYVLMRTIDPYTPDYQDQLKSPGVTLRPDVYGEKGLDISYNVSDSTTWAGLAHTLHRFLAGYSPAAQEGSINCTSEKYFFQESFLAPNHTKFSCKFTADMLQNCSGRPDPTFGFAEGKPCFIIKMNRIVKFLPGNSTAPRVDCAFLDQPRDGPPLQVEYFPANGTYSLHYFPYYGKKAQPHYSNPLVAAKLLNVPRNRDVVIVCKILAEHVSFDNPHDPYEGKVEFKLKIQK
- PROCEDURE SUMMARY: Inhibitory activity on proton pump (H+,K+-ATPase) activity, porcine gastric vesicles, malachite green readout
- MEASUREMENT SETUP: porcine gastric vesicles, pH 6.5, 8 mM KCl, 0.2 mM ATP
pIC50: −log10 of the molar value. Where a name gives a salt, the structure may show the parent alone.
Property: pIC50; scope: individual compounds

Study these solved cases before continuing.
compound="Cc1nc2c(O[C@H]3CCOc4cc(F)cc(F)c43)cc(C(=O)N(C)C)cc2[nH]1 [Tegoprazan, reference compound]" target_desc="Proton Pump (H^+,K^+-ATPase) (Sus scrofa, UniProt P19156)" result="< 6.30"
compound="Cc1cc(F)cc(C)c1CNc1cc(NC(=O)CN)cn2c(C)c(C)nc12.Cl [Example 64, hydrochloride]" target_desc="Proton Pump (H^+,K^+-ATPase) (Sus scrofa, UniProt P19156)" result="> 7.30"
compound="CC(=O)Nc1cc(NCc2c(C)cccc2C)c2nc(C)c(C)n2c1 [Example 4]" target_desc="Proton Pump (H^+,K^+-ATPase) (Sus scrofa, UniProt P19156)" result="> 7.30"
compound="Cc1cccc(C)c1CNc1cc(NC(=O)N(C)CCN)cn2c(C)c(C)nc12 [Example 87, hydrochloride]" target_desc="Proton Pump (H^+,K^+-ATPase) (Sus scrofa, UniProt P19156)" result="> 7.30"
compound="Cc1cccc(C)c1CNc1cc(NC(=O)NC(C)C)cn2c(C)c(C)nc12 [Example 31, hydrochloride]" target_desc="Proton Pump (H^+,K^+-ATPase) (Sus scrofa, UniProt P19156)" result="6.30 to 7.00"
compound="CCOC(=O)CC(=O)Nc1cc(NCc2c(C)cccc2C)c2nc(C)c(C)n2c1 [Example 34]" target_desc="Proton Pump (H^+,K^+-ATPase) (Sus scrofa, UniProt P19156)" result="< 6.30"

Next up:
Prompt line: Annotate the compound Cc1cc(F)cc(C)c1CNc1cc(NC(=O)[C@@H]2CCN2)cn2c(C)c(C)nc12 [Example 65, hydrochloride] with its measured pIC50.
Response line: 7.00 to 7.30

###

- TARGET DESC: Proton Pump (H^+,K^+-ATPase) (Sus scrofa, UniProt P19156)
- Construct: gastric vesicles were isolated from porcine stomachs
- PROCEDURE SUMMARY: Inhibitory activity on proton pump (H+,K+-ATPase) activity, porcine gastric vesicles, malachite green readout
- MEASUREMENT SETUP: porcine gastric vesicles, pH 6.5, 8 mM KCl, 0.2 mM ATP
- Method: Specifically, gastric vesicles were isolated from porcine stomachs, and the protein content of the vesicles was quantified using a BSA kit (Bio-Rad, 5000205). […] The optical density (OD) value was measured at 620 nm using a microplate reader (Spectramax M5e, Molecular devices). […] The IC50 of the test compounds was analyzed using nonlinear regression using the GraphPad Prism8 program using the % inhibition value at each concentration.
Structures can show the parent of a compound that is named as a salt.
MEASURED ATTRIBUTE: IC50

Study these solved cases before continuing.
compound="CC(=O)O[C@H](C)C(=O)Nc1cc(NCc2c(C)cc(F)cc2C)c2nc(C)c(C)n2c1 [Example 111]" result="0.1 to 0.5 µM"
compound="Cc1cc(F)cc(C)c1CNc1cc(NC(=O)[C@@H](C)O)cn2c(C)c(C)nc12 [Example 117]" result="< 0.05 µM"
compound="Cc1cccc(C)c1CNc1cc(NC(=O)CCO)cn2c(C)c(C)nc12.O=C(O)CC(O)(CC(=O)O)C(=O)O [Example 102, citrate]" result="< 0.05 µM"
compound="Cc1cccc(C)c1CNc1cc(NC(=O)N2CCC2)cn2c(C)c(C)nc12 [Example 6]" result="0.05 to 0.1 µM"
compound="COc1cc(/C=C/C(=O)Nc2cc(NCc3c(C)cccc3C)c3nc(C)c(C)n3c2)ccc1OC(C)=O [Example 108]" result="> 0.5 µM"

Prompt line: Annotate the compound Cc1cccc(C)c1CNc1cc(NC(=O)[C@H](C)O)cn2c(C)c(C)nc12 [Example 96, citrate] with its measured IC50.
Response line: 0.1 to 0.5 µM

Prompt line: Annotate the compound CNCC(=O)Nc1cc(NCc2c(C)cccc2C)c2nc(C)c(C)n2c1 [Example 98, hydrochloride] with its measured IC50.
Response line: 0.05 to 0.1 µM

Prompt line: Annotate the compound Cc1cccc(C)c1CNc1cc(NC(=O)CCOCCC(=O)OC(C)(C)C)cn2c(C)c(C)nc12 [Example 41] with its measured IC50.
Response line: > 0.5 µM

###

Property: IC50; scope: individual compounds
- TARGET DESC: Proton Pump (H^+,K^+-ATPase) (Sus scrofa, UniProt P19156)
- Construct: gastric vesicles were isolated from porcine stomachs
- PROCEDURE SUMMARY: Inhibitory activity on proton pump (H+,K+-ATPase) activity, porcine gastric vesicles, malachite green readout
- MEASUREMENT SETUP: porcine gastric vesicles, pH 6.5, 8 mM KCl, 0.2 mM ATP
Structures can show the parent of a compound that is named as a salt.

compound="Cc1cccc(C)c1CNc1cc(NC(=O)CNC(=O)C2CC(F)C2)cn2c(C)c(C)nc12 (stereo not shown)" target_desc="Proton Pump (H^+,K^+-ATPase) (Sus scrofa, UniProt P19156)" measured_attribute=IC50 result="100 to 500 nM"
compound=CC(=O)NCCNC(=O)Nc1cc(NCc2c(C)cccc2C)c2nc(C)c(C)n2c1 target_desc="Proton Pump (H^+,K^+-ATPase) (Sus scrofa, UniProt P19156)" measured_attribute=IC50 result="100 to 500 nM"
compound="Cc1cccc(C)c1CNc1cc(NC(=O)NCC(=O)N(C)C)cn2c(C)c(C)nc12 [Example 48, hydrochloride]" target_desc="Proton Pump (H^+,K^+-ATPase) (Sus scrofa, UniProt P19156)" measured_attribute=IC50 result="50 to 100 nM"

Next up:
Prompt line: Annotate the compound Cc1cccc(C)c1CNc1cc(NC(=O)N2CC(c3ccccc3)C2)cn2c(C)c(C)nc12.O=C(O)CC(O)(CC(=O)O)C(=O)O [Example 77, citrate] with its measured IC50.
Response line: < 50 nM

###

- TARGET DESC: Proton Pump (H^+,K^+-ATPase) (Sus scrofa, UniProt P19156)
- Construct: gastric vesicles were isolated from porcine stomachs
- PROCEDURE SUMMARY: Inhibitory activity on proton pump (H+,K+-ATPase) activity, porcine gastric vesicles, malachite green readout
- MEASUREMENT SETUP: porcine gastric vesicles, pH 6.5, 8 mM KCl, 0.2 mM ATP
pIC50: −log10 of the molar value. Counter-ions that a name gives are not always drawn.
MEASURED ATTRIBUTE: pIC50

compound="Cc1cccc(C)c1CNc1cc(NC(=O)[C@H]2CCNC2)cn2c(C)c(C)nc12 [Example 105, hydrochloride]" result="6.30 to 7.00"

Prompt line: Annotate the compound CNC(=O)N1CC[C@H]1C(=O)Nc1cc(NCc2c(C)cccc2C)c2nc(C)c(C)n2c1 [Example 79] with its measured pIC50.
Response line: 6.30 to 7.00

Prompt line: Annotate the compound Cc1cccc(C)c1CNc1cc(NC(=O)C2CC2)cn2c(C)c(C)nc12 [Example 2] with its measured pIC50.
Response line: 6.30 to 7.00

Prompt line: Annotate the compound Cc1cc(F)cc(C)c1CNc1cc(NC(=O)N2CCC2)cn2c(C)c(C)nc12 [Example 51, citrate] with its measured pIC50.
Response line: > 7.30

###

- TARGET DESC: Proton Pump (H^+,K^+-ATPase) (Sus scrofa, UniProt P19156)
- Construct: gastric vesicles were isolated from porcine stomachs
- PROCEDURE SUMMARY: Inhibitory activity on proton pump (H+,K+-ATPase) activity, porcine gastric vesicles, malachite green readout
- MEASUREMENT SETUP: porcine gastric vesicles, pH 6.5, 8 mM KCl, 0.2 mM ATP
pIC50: −log10 of the molar value. Where a name gives a salt, the structure may show the parent alone.
MEASURED ATTRIBUTE: pIC50

compound=CC(=O)Oc1ccc(/C=C/C(=O)Nc2cc(NCc3c(C)cccc3C)c3nc(C)c(C)n3c2)cc1 result="< 6.30"
compound="Cc1cccc(C)c1CNc1cc(NC(=O)C[C@H]2CCN2)cn2c(C)c(C)nc12 [Example 76, hydrochloride]" result="7.00 to 7.30"
compound="Cc1cccc(C)c1CNc1cc(NC(=O)C[C@H]2CCCN2)cn2c(C)c(C)nc12 [Example 91, hydrochloride]" result="7.00 to 7.30"

Next up:
Prompt line: Annotate the compound CCNC(=O)Nc1cc(NCc2c(C)cccc2C)c2nc(C)c(C)n2c1 with its measured pIC50.
Response line: 7.00 to 7.30
